# System: SF-295 CNS
# experiment-description: NCI tumour cell line growth inhibition, 48 h; in the data active means GI50 below about 0.43 µM; inactive means the rest
Possible outcomes: active, inactive

INSERT INTO results (compound, cat) VALUES
  ('CCOc1c(Cl)cc(CNC(C)C(O)c2ccccc2)cc1OC (configuration not stated)', 'inactive'),
  ('N.N.N.N.N.N.O=N[O-].[Br-].[Co+3].[Co+3].[OH3+].[OH3+]', 'inactive'),
  ('COc1cc(S(C)(=O)=O)ccc1Nc1nc2ccc(-c3ccc(NC(=O)[C@H](C)c4ccc(F)cc4)cc3)cn2n1', 'inactive'),
  ('CC(=O)Nc1ccc(S(=O)(=O)NNC(=O)c2cccnc2Nc2ccc(Cl)cc2)cc1', 'inactive'),
  ('Cn1cc(CNCC2CCN(c3ncc(C(=O)NO)cn3)CC2)c2ccccc21', 'active'),
  ('COc1ccc(C2CC(n3nnnc3-c3ccccc3)=NN2)cc1 (configuration not stated)', 'inactive'),
  ('CCN(CCNc1ccc(C)c2sc3ccccc3c(=O)c12)CC(C)(C)O', 'inactive');
